Recorded TGI, one value per entry.
System: HL-60(TB) leukemia
Test: NCI tumour cell line growth inhibition, 48 h
Provide the reading as a plain figure in µM.

Nc1c2c(nc3ccccc13)-c1ccccc1NCCC2 ... 47.5
CCOC(=O)C(O)(C(=O)OCC)c1cc(C(C)(C)C)c(O)c(C(C)(C)C)c1 ... 98.2
O=C(NCCNc1nccc(-c2c(-c3cccc(O)c3)nc3sccn23)n1)c1ccccc1 ... 29.6
CCCCCCCCCCCCCC(=O)CSCCNC(=O)CCNC(=O)[C@@H](O)C(C)(C)COP(=O)(O)OP(=O)(O)OCC1OC(n2cnc3c(N)ncnc32)C(O)C1OP(=O)(O)O (some centres not stated) ... 51.4

Then this compound:
### Prompt Dear colleague, I am looking for the recorded TGI of the following compound: "N#CN1CC[C@H](C(=O)Nc2cc3cc(C(N)=O)ccc3cn2)C1"
### Response 0.443

* * *

Tested on: SNB-75 CNS
Test: NCI tumour cell line growth inhibition, 48 h; in the data active means GI50 below about 0.43 µM; inactive means the rest
Respond with a class label; see 1.0 (active), 0.0 (inactive)

Below are worked cases with known answers.
O=C(N/N=C/c1cc(Cl)cc(Cl)c1[O-])c1ccccc1.O=C(N/N=C/c1cc(Cl)cc(Cl)c1[O-])c1ccccc1.[Co+2] ... 0.0
Cc1c(C(N)=O)sc2c1c(=O)n(Cc1ccccc1)c1nnc(-c3ccc(Br)cc3)n21 ... 0.0
CC1=C(C)C2(O)C(=C(C)C1=O)/C(=C(/O)c1ccccc1)c1nc3ccccc3n12 (stereo unspecified) ... 0.0
O=S(=O)(Nc1ccc(F)c(Cl)c1)c1ccc(-c2cnc(C3CC3)o2)cc1 ... 1.0
O=C(c1ccccc1)n1c(-c2ccccc2)cs/c1=N\S(=O)(=O)c1ccc(N2N=C3c4ccccc4CC3C2c2cccs2)cc1 (stereo unspecified) ... 0.0

### Prompt Hi, do you know how "Cc1ccc(NCCN(C)C)c2c(=O)c3ccccc3sc12" came out in this test?
### Response 0.0

### Prompt Cool, now "Nc1ccccc1C#C/C=C\C#Cc1c(F)c(F)c(F)c(F)c1F"
### Response 0.0

### Prompt Cool, now "COc1cccc(/C(C)=N/NC(=O)CSc2nc3ccccc3c(=O)n2CCc2ccc(S(N)(=O)=O)cc2)c1"
### Response 0.0

### Prompt Cool, now "C[C@@H]1COCCN1c1cc(C2([S@@](C)(=N)=O)CC2)nc(-c2ccnc3[nH]ccc23)n1"
### Response 0.0

### Prompt Cool, now "COc1cc(NCCN=C(N)NC(N)=NC(C)C)c2ncccc2c1"
### Response 0.0

### Prompt Cool, now "Cc1ccc(-c2nc([P+](c3ccccc3)(c3ccccc3)c3ccccc3)c(Nc3ccccc3)o2)cc1"
### Response 0.0

### Prompt Cool, now "CC(=O)c1cc(C(=O)c2ccc3c(c2)Sc2ccccc2N3)c2c(C)cccn12"
### Response 1.0

### Prompt Cool, now "CCS(=O)(=O)c1ccc(OC)c(Nc2ncc(-c3ccccc3Cl)o2)c1"
### Response 0.0

### Prompt Cool, now COc1cccc(C2C3=C(COC3=O)N(CCO)c3cc4c(cc32)OCO4)c1 (stereo unspecified)
### Response 1.0

### Prompt Cool, now "COc1ccc(/C=C\c2cc(OC)c(OC)c(OC)c2)cc1OCC(=O)Nc1ccc2nc(C)sc2c1"
### Response 0.0

### Prompt Cool, now "C#COc1cccc(Nc2ncnc3cc(NC(=O)[C@H](C)Cl)ccc23)c1"
### Response 0.0
